Experimental System: recombinant human adrenergic beta 1 receptors (Homo sapiens, UniProt P08588)
Construct: purchased Euroscreen
Sequence (P08588 whole entry): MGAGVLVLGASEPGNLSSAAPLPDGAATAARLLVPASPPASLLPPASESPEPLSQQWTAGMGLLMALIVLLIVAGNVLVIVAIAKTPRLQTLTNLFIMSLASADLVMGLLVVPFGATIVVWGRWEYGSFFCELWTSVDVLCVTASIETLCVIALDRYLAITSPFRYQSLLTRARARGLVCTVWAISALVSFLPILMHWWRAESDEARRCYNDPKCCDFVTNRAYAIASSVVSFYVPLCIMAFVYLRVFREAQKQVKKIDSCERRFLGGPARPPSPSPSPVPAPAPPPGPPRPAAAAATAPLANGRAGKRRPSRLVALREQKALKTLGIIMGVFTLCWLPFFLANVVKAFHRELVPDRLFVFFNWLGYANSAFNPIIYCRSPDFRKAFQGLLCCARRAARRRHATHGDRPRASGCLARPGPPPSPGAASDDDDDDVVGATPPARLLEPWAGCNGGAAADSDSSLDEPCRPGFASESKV
Protocol Text: Adrenergic β1 selectivity binding assay ([125I]-Iodocyanopindolol)
Condition Summary: inhibition of [125I]-Iodocyanopindolol (0.036 nM) binding; read-out: β1 bind p IC50 (converted)
Procedure: Membranes containing recombinant human adrenergic beta 1 receptors were obtained from Euroscreen. […] Assays were performed in U-bottomed 96-well polypropylene plates. […] Five washes with 250 μL wash buffer (50 mM HEPES, 1 mM EDTA, 120 mM NaCl, pH 7.4) were performed at 4° C. to remove unbound radioactivity. […] The plates were sealed (TopSeal A) and filter-bound radioactivity was measured with a scintillation counter (TopCount, Packard BioScience) using a 3-minute counting protocol. […]
Structures can show the parent of a compound that is named as a salt.
Endpoint Label: IC50 (µM)

Some solved entries appear below for comparison.
• COc1ccc(CCNCCC(=O)N(CCNCCc2ccc(O)c3[nH]c(=O)sc23)C2CCCCC2)cc1 [Example 68, bis-trifluoroacetic acid salt] = 3.98
• CC(C)(CNCCC(=O)N(CCNCCc1ccc(O)c2[nH]c(=O)sc12)C1CCCC1)c1ccccc1 [Example 32, bis-trifluoroacetic acid salt] = 7.94
• O=C(CCNCCc1ccccc1)N(CCNCCc1ccc(O)c2[nH]c(=O)sc12)C1CCCCC1 [Example 5, bis-trifluoroacetic acid salt] = 5.01
• CC(C)(C)CN(CCNCCc1ccc(O)c2[nH]c(=O)sc12)C(=O)CCNCCc1cccc(Cl)c1 [Example 7, bis-trifluoroacetic acid salt] = 3.16
• O=C(CCNCCc1ccccc1)N(CCNCCc1ccc(O)c2[nH]c(=O)sc12)C1CCCCCC1 [Example 23, bis-trifluoroacetic acid salt] = 3.98
• Cc1cccc(CCNCCC(=O)N(CCNCCc2ccc(O)c3[nH]c(=O)sc23)C2CCCCC2)c1 [Example 14, bis-trifluoroacetic acid salt] = 7.94

(A) COc1cccc(CCNCCC(=O)N(CCNCCc2ccc(O)c3[nH]c(=O)sc23)CC(C)(C)C)c1 [Example 43, bis-trifluoroacetic acid salt]
(B) C[C@H](CNCCC(=O)N(CCNCCc1ccc(O)c2[nH]c(=O)sc12)CC(C)(C)C)c1ccccc1 [Example 11, bis-trifluoroacetic acid salt]
Asked: Of A and B , which shows the smaller IC50 value? Write the label of whichever entry you select.
Given back: A

Where do the numbers come from? From patent US20100022491A1.
